The origin of these recorded values is the METLIN SMRT retention time set (Domingo-Almenara et al. 2019).

- experimentSummary: gradient 5% acetonitrile 3 min, to 50% in 2 min, to 85% in 15 min, held 3 min, 100 µL/min
- reportedConditions: column: Zorbax Extend-C18 2.1 x 50 mm; eluents: water / acetonitrile, 0.1% formic acid
parameterMeasured: RP-LC retention time (s)

In [3]: df
Out[3]:
                                   molecule  numericvalue
0  CN(C)CCN(C(=O)CN1C(=O)c2ccccc2C1=O)c1nc2ccc(Cl)cc2s1           616
1  COc1ccc(C2(C(=O)N3CCCC(c4nc(C5CCOCC5)no4)C3)CC2)cc1 (stereo not drawn)           822
2  O=C(Nc1ccc(OCC(=O)N2CCN(c3ccccc3)CC2)nc1)C1CC1           730
3  CCn1nc(C)c(CCNC(=O)C2CCCN(c3nn4c(=O)c5c(nc4s3)CCCC5)C2)c1C (stereo not drawn)           634
4  CCc1ccccc1NC(=O)CN1C(=O)C2CCCCN2c2ccc(S(=O)(=O)N(C)C)cc21 (stereo not drawn)           918
5  O=C(Nc1ccc(C(F)(F)F)cc1)NC1CCN(c2ccc(F)cc2)C1=O (stereo not drawn)           920
6  Cc1cc(C)c2c(-n3cccc3)nn(CC(=O)NCCN(C)C)c2n1           630
7  Cc1ccc2c(=O)c(C(=O)N3CCC(C)CC3)cn(CC(=O)NC3CCCCC3)c2n1           762
